B1: KLHDC10 (parent)
chain: FGGTGIPFGESNGNGVHVCNVKYK

Variants of: B1
EXPERIMENT_NOTES: protein stability index of a GFP-peptide fusion (GPS, HEK-293T) (PSI 1-6); higher = more stable;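 note: lentivirally expressed fusions sorted by FACS into six bins by GFP to DsRed ratio, PSI derived from sequencing read proportions per bin multiplied by bin number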
MEASUREMENT_PARAMETERS: c terminus: a fixed tail appended
ENDPOINT_LABEL: protein stability index

`N20A` yielded protein stability index of 2.35
